Hi there, I'd appreciate the recorded melting point for every entry that follows.

The cases that follow already have their melting point on record.
[
  {
    "Molecule": "COc1cccc2nc(C)n(C3CCC(=O)NC3=O)c(=O)c12 (stereo not drawn)",
    "Measurement": "274 to 276 °C"
  },
  {
    "Molecule": "Cc1cn(C(C(=O)N(C)C)C(C)C)nc1-c1ccccc1 (stereo not drawn)",
    "Measurement": "66.5 to 68.5 °C"
  }
]

Note: attention shifts to another entry.
[Q] Specify melting point for COC(=O)CCC#Cc1nc(Cl)ccc1N and stop.
[A] 96 to 100 °C

---

Readout type: melting point

The cases that follow already have their melting point on record.
[
  {
    "Compound": "COc1ccc(NC(=N)c2cccs2)cc1CO",
    "Measurement": "191 to 192 °C"
  },
  {
    "Compound": "CC(C)NC(=O)N1N=C(c2ccc([N+](=O)[O-])cc2)c2cc(Cl)ccc2CC1C (stereo not drawn)",
    "Measurement": "172 to 174 °C"
  }
]

[Q] Specify melting point for Nc1ccc(C(=O)O)cc1S(N)(=O)=O and stop.
[A] 214 to 219 °C
